Experimental Target: T1, human Complement Factor D (CFD), purified from human serum (human, UniProt P00746 26-253)
T1 construct: serum purified (CompTech A136); also called serum purified CFD; hCFD-Comptech
T1 sequence (P00746 26-253): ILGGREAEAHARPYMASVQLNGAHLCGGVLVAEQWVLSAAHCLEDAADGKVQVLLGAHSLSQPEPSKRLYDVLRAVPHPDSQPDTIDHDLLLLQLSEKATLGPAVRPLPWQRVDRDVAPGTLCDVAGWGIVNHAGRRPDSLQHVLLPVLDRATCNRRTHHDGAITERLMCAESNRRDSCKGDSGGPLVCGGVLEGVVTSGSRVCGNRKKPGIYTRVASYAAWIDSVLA
Protocol: SPR MX96, mAbs amine-coupled, CFD injected
Recorded Metric: pKd
One number for each entry, as −log10 of the molar value.

Please review the entries below; each comes with its answer.
{"columns": ["Binder", "pKd"],
 "data": [
  ["KCD219 (antibody, V domains shown) VH: QVQLQQSGPELVKPGASVKISCKASGYTFTDYYINWVKQRPGQGLEWIGWIFPGSGSTYYNEKFKGKATLTVDKSSSTAYMLLSSLPSEDSAVYFCARYGYYGSSFYAMDYWGQGTSVTVSS VL: DIQMTQSPASLSVSVGETVTITCRASENIYSNLAWYQQKQGKSPQLLVYAATNLADGVPSRFSGSGSGTQYSLKINSLQSEDFGSYYCQHFWGSPPTFGGGTKLEIK", 8.37],
  ["KCD058 (antibody, V domains shown) VH: EVKLVESGGDLVQPGGSLKLSCAASGFTFSRYIMSWVRLTPEKRLEWVAFITNGGGNTYHPDTVKGRFTISRDNANNTLYLQMSSLKSEDTAIYYCARHDYYALDYWGQGTSVTVSS VL: DIQMTQSPSSLSASLGGKVTITCKASQDINKYIAWYQHKPGKGPRLLIHYTSTLQPGIPSRFSGSGSGRDYSFSISNLEPEDIATYYCLQYDNLLYTFGGGTKLEIK", 8.00],
  ["KCD128 (antibody, V domains shown) VH: QVQLQQPGAELVRPESSVKLSCKASGYTFTSYWMDWVMQRPGQGLEWIGNIYPSGSETHYNQKFKDKATLTVDKSSTTAYMQLSSLTFEDSAVYYCARSGFIGSRYLYYFDYWGQGTTLTVSS VL: DIVMTQSHKFMSTSVGDRVTITCKASQDVSNAVAWYQLKPGQSPKLLIYSASYRYTGVPDRFTGSGSGTDFTFTISSVQAADLAVYYCQQHYITPYTFGGGTKLEIK", 7.85],
  ["KCD214 (antibody, V domains shown) VH: EVQLQQSVAEFVRPGASVKLSCTASGFNIKNTYMHWVKQRPEQGLEWIGRIDPANGNTEYAPKFQGKATITADTSSNTAYLQLSSLTSEDTAIYYCALYDYDGYWGQGTTLTVSS VL: EIVLTQSPALMAASPGEKVTITCRVSSSISSSSLHWYQQKSGTSPKPWIYGTSNLASGVPVRFSGSRSGTSYSLTISSMEAEDAATYYCQQWSDYPWTFGGGTKLEIK", 8.81],
  ["KCD009 (antibody, V domains shown) VH: QIQLVQSGPELKKPGETVKISCKASGYIFRNYGMNWVKQGPGKGLKWMGWINTYTGEPTYADDFKGRFAFSLETSASTAYLQISNLKNEDTATYFCVRDGPGFAYWGQGTLVTVSA VL: DVLMTQTPLSLPVSLGDQASISCRSSLIIEHSDGNTYLEWYLQKPGQSPKLLIYKVSNRFSGVPDRFSGSGSGTDFTLKISRVEADDLGVYYCFQGSHVPVTFGAGTNLELK", 8.25],
  ["KCD103 (antibody, V domains shown) VH: QVQLQQPGAELVRPGTSVKLSCKASGYTFTSYWMHWVKQRPGQGLEWIGVIDPSDSYTKYNQKFKDKATLTVETSSSTAYMQLSSLTSEDSAVYYCAGNGYDGSMDYWGQGTSVTVSS VL: DIQMTQTTSSLSASLGDRVTISCRASQDISNSLNWYQQKPDGTVKLLIYYTSRLHSRVPSRFSGSGSGTDYSLTISNLDQEDIATYFCQQANTLPYTFGGGTKLEIK", 8.36],
  ["KCD003 (antibody, V domains shown) VH: EVQLQQSRPELVKPGASVKIFCKASGYTFTDYYMNWMRQRHGETLEWIGDINPNNGDPSYNQKFKDKATLTVDKSSSTASMELRSLTSDDSAVYYCAREGPSFAYWGQGTLVTVSA VL: DVLMTQTPLSLPVSLGEQASISCRSSQTIVHSNGDTYLEWYLQKPGQSPNLLIYKVSNRFSGVPDRFSGSGSGTDFTLKISRVEAEDLGVYYCFQGSHVPPTFGGGTKLEIK", 8.98],
  ["KCD075 (antibody, V domains shown) VH: QVQLLQPGAELVRPGTSVKLSCKASGYTFSNYWINWVKQRPGQGLEWIGNIYPSDSSINYNQKFKDKATLTVDKSSTTAYMQLSSPTSEDSAVYYCTGTDWYFDVWGAGTTVTVSS VL: DIQMTQTTSSLSASLGDRVTISCSGGQGISNYLNWYQQKPDGTFKLLIYYTSTLHSGVPSRFSGSGSGTDYSLTISNLEPEDVATYYCQQYSKLPYTFGGGTKLEIK", 8.43],
  ["KCD011 (antibody, V domains shown) VH: EVKLVESGGGLVQPGGSLKLSCAASGFTFSSNTMSWVRQTPEKRLEWVAYITNGGGSTYYPDTVKGRFTISRDNARNTLYLQMSSLKSEDTAMYYCARHDYYTMDYWGQGTSVTVSS VL: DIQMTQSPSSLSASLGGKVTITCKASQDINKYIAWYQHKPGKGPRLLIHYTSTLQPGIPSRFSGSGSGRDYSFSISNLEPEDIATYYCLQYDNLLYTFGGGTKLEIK", 7.11]
]}

Now look at this entry.
Enquiry: Name the recorded pKd for KCD044 (antibody, V domains shown) VH: EVQLQQSGAELVKPGASVRLSCTASGFNIKHTYMHWVSQRPERGLEWIGKIDPANGNTKYDPKFQGKATITADTSSNTVYLQLSSLTSEDTAVYYCLNAMEYWGQGTSVTVSS VL: QSVLTQSPAIMSASPGEKVTMTCSANSSVSDMYWYQQRPGSSPRLLIYDTSNLASGVPVRFSGSGSGTSYSLTISRMEAEDAATYYCQQWSTYPWTFGGGTKLEIK .
Return: 8.58
